Below: a set of entries, each annotated with reported IC50.
Target: Fungal ACC2 (UniProt Q00955)
Sequence (Q00955 whole entry): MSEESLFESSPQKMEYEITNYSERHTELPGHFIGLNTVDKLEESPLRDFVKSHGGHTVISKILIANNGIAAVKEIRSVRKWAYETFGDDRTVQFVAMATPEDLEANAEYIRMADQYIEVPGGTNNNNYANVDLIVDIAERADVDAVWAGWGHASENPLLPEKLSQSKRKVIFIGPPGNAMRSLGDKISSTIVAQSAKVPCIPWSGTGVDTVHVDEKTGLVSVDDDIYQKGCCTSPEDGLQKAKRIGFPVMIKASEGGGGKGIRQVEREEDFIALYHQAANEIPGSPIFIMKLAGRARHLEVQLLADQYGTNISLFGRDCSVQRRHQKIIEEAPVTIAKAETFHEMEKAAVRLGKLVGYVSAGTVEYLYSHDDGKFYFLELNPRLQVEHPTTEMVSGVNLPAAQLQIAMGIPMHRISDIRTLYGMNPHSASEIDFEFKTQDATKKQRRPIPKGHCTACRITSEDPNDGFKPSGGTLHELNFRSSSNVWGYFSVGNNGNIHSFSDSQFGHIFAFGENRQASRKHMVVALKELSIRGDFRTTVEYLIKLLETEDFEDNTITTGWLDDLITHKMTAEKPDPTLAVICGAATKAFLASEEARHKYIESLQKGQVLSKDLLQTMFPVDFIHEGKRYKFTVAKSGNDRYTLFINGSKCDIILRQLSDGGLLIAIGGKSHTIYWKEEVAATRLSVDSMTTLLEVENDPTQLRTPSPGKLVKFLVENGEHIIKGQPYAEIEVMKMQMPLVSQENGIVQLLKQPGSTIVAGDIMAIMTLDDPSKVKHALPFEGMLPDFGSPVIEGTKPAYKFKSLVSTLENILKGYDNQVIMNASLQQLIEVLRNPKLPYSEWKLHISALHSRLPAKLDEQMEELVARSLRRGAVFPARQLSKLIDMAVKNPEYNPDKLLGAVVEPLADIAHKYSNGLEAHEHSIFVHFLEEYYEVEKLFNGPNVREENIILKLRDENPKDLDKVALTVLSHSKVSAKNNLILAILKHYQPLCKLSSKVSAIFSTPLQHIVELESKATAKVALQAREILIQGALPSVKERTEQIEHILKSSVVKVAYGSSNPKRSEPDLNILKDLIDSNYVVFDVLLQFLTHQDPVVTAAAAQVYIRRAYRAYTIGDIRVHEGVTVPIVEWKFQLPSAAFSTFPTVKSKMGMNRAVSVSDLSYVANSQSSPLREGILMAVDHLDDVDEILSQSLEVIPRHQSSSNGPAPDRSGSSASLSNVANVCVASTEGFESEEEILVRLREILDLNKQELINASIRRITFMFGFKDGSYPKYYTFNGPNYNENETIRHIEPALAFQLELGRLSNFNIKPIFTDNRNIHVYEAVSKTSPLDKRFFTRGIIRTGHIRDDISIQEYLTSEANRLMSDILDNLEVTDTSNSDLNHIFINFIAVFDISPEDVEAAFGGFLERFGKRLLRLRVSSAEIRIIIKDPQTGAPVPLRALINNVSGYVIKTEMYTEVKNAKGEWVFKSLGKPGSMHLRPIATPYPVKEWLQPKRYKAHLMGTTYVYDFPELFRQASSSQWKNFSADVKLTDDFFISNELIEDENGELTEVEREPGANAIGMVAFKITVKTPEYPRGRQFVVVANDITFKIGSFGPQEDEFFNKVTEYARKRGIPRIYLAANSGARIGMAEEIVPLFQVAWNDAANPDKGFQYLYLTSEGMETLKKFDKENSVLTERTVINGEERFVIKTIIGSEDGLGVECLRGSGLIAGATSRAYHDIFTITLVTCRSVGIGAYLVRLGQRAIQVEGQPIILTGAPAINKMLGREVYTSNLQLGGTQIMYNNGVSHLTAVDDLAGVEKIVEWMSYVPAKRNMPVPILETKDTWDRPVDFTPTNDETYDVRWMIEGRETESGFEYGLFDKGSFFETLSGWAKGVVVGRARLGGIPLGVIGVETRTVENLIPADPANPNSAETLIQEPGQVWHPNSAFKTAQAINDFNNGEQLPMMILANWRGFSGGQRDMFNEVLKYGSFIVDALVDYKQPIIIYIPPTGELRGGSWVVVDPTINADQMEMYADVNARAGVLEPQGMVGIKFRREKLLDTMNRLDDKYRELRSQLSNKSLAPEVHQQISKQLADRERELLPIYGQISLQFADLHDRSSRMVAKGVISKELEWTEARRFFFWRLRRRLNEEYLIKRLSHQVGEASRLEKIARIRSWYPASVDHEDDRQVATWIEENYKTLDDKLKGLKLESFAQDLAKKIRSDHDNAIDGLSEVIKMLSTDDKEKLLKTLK
ASSAY_METRIC: IC50

COc1ccc(F)cc1[C@H](Cn1c(=O)n([C@@H]2CCN(C(=O)C(C)C)C2)c(=O)c2c(C)c(-n3nccn3)sc21)OCCO [Compound I-87] : 0.7 to 2 nM
COc1ccc(F)cc1[C@H](Cn1c(=O)n([C@H]2CCN(C)C2=O)c(=O)c2c(C)c(-n3nccn3)sc21)OCCC#N [Compound I-108] : 0.7 to 2 nM
COc1ccc(F)cc1[C@H](Cn1c(=O)n([C@@]2(C)CCCNC2=O)c(=O)c2c(C)c(-n3nccn3)sc21)OCCO [Compound I-127] : 0.7 to 2 nM

====

Known MIC of a selection of compounds
Test system: Candida tropicalis
Experiment: In vitro antifungal assay (broth microdilution, Micromyx), C. tropicalis
Format: cell-based
Details: ATCC90874, strain 0636 ATCC 90874, 35° C., approximately 24-48 hr
Method: Compounds of the present invention were also assayed in an in vitro antifungal assay against Candida glabrata, Candida tropicalis, and Aspergillus fumigatus, performed by Micromyx, a representative procedure of which follows. The test organisms were reference strains acquired from the American Type Culture Collection (ATCC). Upon receipt, the isolates were streaked onto Sabouraud Dextrose Agar (SDA). […]
ASSAY_METRIC: MIC

COc1ccc(F)cc1[C@H](Cn1c(=O)n([C@H]2CCCNC2=O)c(=O)c2c(C)c(-n3nccn3)sc21)OC1CCOCC1 : 0.25 to 1 µg/mL
CCN1CCC(n2c(=O)c3c(C)c(-n4nccn4)sc3n(C[C@H](OC3CCOCC3)c3cc(F)ccc3OC)c2=O)C1=O (stereo partly drawn) : 0.25 to 1 µg/mL
COc1ccc(F)cc1[C@H](Cn1c(=O)n([C@@H]2CCN(C)C2=O)c(=O)c2c(C)c(-n3nccn3)sc21)OC1CCOCC1 : 0.25 to 1 µg/mL

====

Test system: C. parapsilosis ATCC 22019
Assay: Anti-Fungal Activity Assay (broth microtiter MIC), C. parapsilosis
Assay type: cell-based, Candida parapsilosis
Details: Lodderomyces parapsilosis, ATCC22019, 48 h, 3 replicates; MIC recorded at 48 h; read-out: MIC C. parapsilosis ATCC 22019
ASSAY_METRIC: MIC

COCCO[C@@H](Cn1c(=O)n([C@@H]2CCCN(C(C)C)C2=O)c(=O)c2c(C)c(-n3nccn3)sc21)c1cc(F)ccc1OC : 0.25 to 1 µg/mL
CCN1CCC(n2c(=O)c3c(C)c(-n4nccn4)sc3n(C[C@H](OCCO)c3cc(F)ccc3OC)c2=O)C1=O (stereo partly drawn) : 2.1 to 4 µg/mL
COc1ccc(F)cc1[C@H](Cn1c(=O)n([C@@]2(C)CCCN(C)C2=O)c(=O)c2c(C)c(-n3nccn3)sc21)OCCO : 2.1 to 4 µg/mL

====

Measured pIC50 (Human ACC2 (Homo sapiens, UniProt O00763))
pIC50: −log10 of the molar value.
ASSAY_METRIC: pIC50

COc1ccc(F)cc1[C@H](Cn1c(=O)n([C@@H]2CCN(C)C2=O)c(=O)c2c(C)c(-n3nccn3)sc21)OC : 7.00 to 8.00
COc1ccc(F)cc1[C@H](Cn1c(=O)n([C@H]2CCN(C)C2=O)c(=O)c2c(C)c(-n3nccn3)sc21)OC1CCOCC1 : 7.00 to 8.00
COCCO[C@@H](Cn1c(=O)n(C2CCN(C)C2=O)c(=O)c2c(C)c(-n3nccn3)sc21)c1cc(F)ccc1OC (stereo partly drawn) : 7.00 to 8.00
COCCO[C@@H](Cn1c(=O)n([C@@]2(C)CCC(=O)N(C)C2)c(=O)c2c(C)c(-n3nccn3)sc21)c1cc(F)ccc1OC : 7.00 to 8.00
COc1ccc(F)cc1[C@H](Cn1c(=O)n([C@H]2CCCNC2=O)c(=O)c2c(C)c(-n3nccn3)sc21)O[C@H]1CC[C@@H](O)CC1 : 8.00 to 8.70
COCCO[C@@H](Cn1c(=O)n([C@]2(C)CCCNC2=O)c(=O)c2c(C)c(-n3nccn3)sc21)c1cc(F)ccc1OC : 7.00 to 8.00

The values you see were collected from patent US20190330224A1.
